B1: INTS3 (parent)
chain: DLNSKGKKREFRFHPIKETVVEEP

variants of: B1; assay: protein stability index of a GFP-peptide fusion (GPS, HEK-293T) (PSI 1-6); higher = more stable; conditions: c terminus: a fixed tail appended;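 further: lentivirally expressed fusions sorted by FACS into six bins by GFP to DsRed ratio, PSI derived from sequencing read proportions per bin multiplied by bin number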
So basically: protein stability index at 2 or higher? That is y. Lower than 2? That is n.

mutation.code: P24V
answer.label: y
//
mutation.code: E23T
answer.label: y
//
mutation.code: L2W
answer.label: n
//
mutation.code: F11S
answer.label: y
//
mutation.code: E22M
answer.label: n
//
mutation.code: E22Y
answer.label: n
//
mutation.code: N3G
answer.label: y
//
mutation.code: I16Y
answer.label: y
//
mutation.code: K8A
answer.label: n
